Assay: Population pharmacokinetic analysis of upadacitinib plasma concentrations
Assay type: in vivo, human
Settings: human, plasma, oral, 15 mg, C max, model-estimated, 15 mg once daily, patients with RA in phase III trials (N = 1592); median (5th to 95th percentile)
observation type: Cmax (ng/mL)
Number only, in ng/mL; omit the unit.

IN: For the molecule shown here, CC[C@@H]1CN(C(=O)NCC(F)(F)F)C[C@@H]1c1cnc2cnc3[nH]ccc3n12 [upadacitinib] , give the reported Cmax.
OUT: 41.1

* * *

Test: Population pharmacokinetic analysis of upadacitinib plasma concentrations
Type: in vivo, human
Details: human, plasma, oral, 15 mg, C trough, model-estimated, 15 mg once daily, patients with RA in phase III trials (N = 1592); median (5th to 95th percentile)
observation type: concentration at 24 h (ng/mL)
Reply with just the number (in ng/mL).

IN: Any idea what concentration at 24 h was measured for `CC[C@@H]1CN(C(=O)NCC(F)(F)F)C[C@@H]1c1cnc2cnc3[nH]ccc3n12` ?
OUT: 3.72

* * *

Assay: Population pharmacokinetic analysis of upadacitinib plasma concentrations
Assay type: in vivo, human
Conditions: human, plasma, oral, 15 mg, C trough, model-estimated, 15 mg once daily, patients with nr-axSpA (N = 71); median (5th to 95th percentile)
observation type: concentration at 24 h (ng/mL)
Quick reminder: number only, in ng/mL, skip the unit.

IN: I would be grateful if you could share the reported concentration at 24 h for CC[C@@H]1CN(C(=O)NCC(F)(F)F)C[C@@H]1c1cnc2cnc3[nH]ccc3n12 [upadacitinib] .
OUT: 4.58

* * *

Test: Population pharmacokinetic analysis of upadacitinib plasma concentrations
Assay type: in vivo, human
Conditions: human, plasma, oral, 15 mg, C trough, model-estimated, 15 mg once daily, patients with AS (N = 173); median (5th to 95th percentile)
observation type: concentration at 24 h (ng/mL)
Respond with the bare value in ng/mL.

IN: I'd like to know its concentration at 24 h. The compound in question is `CC[C@@H]1CN(C(=O)NCC(F)(F)F)C[C@@H]1c1cnc2cnc3[nH]ccc3n12`
OUT: 3.71

Data origin, for the record: paper PMC10859787
